# credit: the nanobody polyreactivity screen of Harvey et al. (2022)

# protocolSummary: yeast display, Sf9 membrane polyspecificity reagent, FACS + sequencing; frameworks hold sequencing errors
quantity: polyreactivity (PSR sort gate)

QVQLVESGGGLVQAGGSLRLSCAASGRTLDSNAMGWYRQAPGKERELVAAISSAGSTNYADSVKGRFTISRDNAKNTVYLQMNSLKPEDTAVYYCAADLIGSHDYWGQGTQVTVSS ... low polyreactivity
QVQLVESGGGLVQAGGSLRFSCAASGRIIEQNAMGWYIQAPGKERELVATITRRGGRTYYADSVKGRFTISRDNAKNTVYLQMNSLKPEDTAVYYCNQVSYARGYDYWGQGTQVTVSS ... high polyreactivity
QVQLVESGGGLVQAGGSLRLSCAASGLTLYRNAMGWYRPAPGKVRELVAAITKSGARTYYADSVKGRFTISRDNAKNTVYLQMNSLKPEDTAVYYCAADALNTYNYWGQGTQVTVSS ... high polyreactivity
QVQLVESGGGLVQAGGSLRLSCAASGRTFAPYAMGWSRQAPGKEREFVAGITWSSSSTYADSVKGRFTISRDNAKNTVYLQMNSLKPEDTAVYYCAARHAKGGNRHYYWGQGTQVTVSS ... high polyreactivity

QUERY: Quick one: polyreactivity (PSR sort gate) for `QVQHVESGGGLVQAGGSLRLSCAASGSTFVGNAMGWYRQAPGKERELVADITSGGSTNYADSVKGRFTISRDNAKNTVYLQMNSLKPEDTAVYYCAAVYLWSQRREFWGQGTQVTVSS` ?
RESULT: low polyreactivity

QUERY: Now consider `QVQLVESGGGLVQAGGSLRLSCAASGFIFDDNAMGWNRQAHGKERELVAAITSGGGSTYYADSVKGRFTISRDNAKNTVYLQLNSLKPEDTAVYYCNAVPSQHDEFDYWGQGTQVSVSS` and answer again.
RESULT: low polyreactivity

QUERY: Please answer likewise for `QVQLVESGGGLVQAGGSLRLSCAASGFTFFYYVMGWYRQAPGKERELVAAISQHGGSTYYADSVKGRFTISRDNAKNTVYLQMNSLKPEDTAVYYSAASPVVNRRGTYGYWGQGTQVTVSS`
RESULT: high polyreactivity

QUERY: Moving on to `QVQLVESGGGLVQAGGSLRLSCAASGITFSLYVMGWYRQAPGKERELVAAISTSGGSTYYADSVKGRFTISRDNAKNTVYLQMTSLKPEDTAVYYCAAVYVLSWYVQTYDYWGQGTQVTVSS`
RESULT: low polyreactivity

QUERY: Same again, this time with `QVQLVESGGGLVQARGSLRLSCAASVRTICNNAMGWYREAPGKERELVAANTSTASRTYYADSEKGRFTISRDNAKNTVYLQMNSLKPEDTAVYYCNRVSHLDYYWGQGTQVTVSS`
RESULT: high polyreactivity

QUERY: `QVQLVESGGGLVQAGGSLGLSCAASGFTFYYYAMGWYRQAPGKERELVAIRFRGGNTYYADSVKGRFTISRDNAENTVYLQMNSLKPEDTAVYYCNADDLGSTYVDYDYWGQGTQVTVSS` ?
RESULT: low polyreactivity

QUERY: Continue with `QVQLVESGGGLVQAGGSLRLSCAASGSTFEVYVMGWYRQAPGKERELVAGISKRGGRTYYADSVKGRFTISRDTEKNTVYLQLNSLKPEDTAVYYCAADAPGHEYYYWGQGTQVTVSS`
RESULT: high polyreactivity
